Where do these numbers come from? They come from patent US4534979A.

test system: mouse epidermal cell culture; experiment: mouse epidermal cell culture, anti-differentiation activity (Kreyberg staining and nuclei enumeration); assay type: cell-based; parameters: key: nuclei enumeration score; 0 = maximum differentiation; settings: 12 ug/ml, day 10; second number of the ratio
I'd appreciate it if you could supply nuclei enumeration, score (maximum differentiation 0) values for the items below.
Reply briefly: the number, and no unit.

State, for mouse epidermal cell culture, measured nuclei enumeration, score (maximum differentiation 0) of the compound listed here: CC1=C(/C=C/C(C)=C/C=C/C(C)=C\C(=O)O)C(C)(C)CCC1
6.5

Tell me nuclei enumeration, score (maximum differentiation 0) of CC1=C(/C=C/C(C)=C/C=C/C(C)=C/C(=O)O)C(C)(C)CCC1 [TRA, trans retinoic acid] when tested on mouse epidermal cell culture.
6

Provide nuclei enumeration, score (maximum differentiation 0), system mouse epidermal cell culture, entry CC(C=CC1=C(C)CCCC1(C)C)=CC=CC=C(C)C(=O)O
5

Look up and report measured nuclei enumeration, score (maximum differentiation 0) (mouse epidermal cell culture) for the following compound: CC1=C(/C=C/C(C)=C/C=C/C(C)=C/C=C(\C)C(=O)O)C(C)(C)CCC1
7.5
